Data credit: patent US20230158157A1

Target or system: EML4-ALK (Homo sapiens)
Construct: endogenous in cells; host or cells: H3122 (NSCLC), single-cell clone after CRISPR knock-in of HiBit; the other entry of the earlier key: EML4 (Q9HC35, Echinoderm microtubule-associated protein-like 4)
Sequence (Q9UM73 with tags, fused parts or gaps): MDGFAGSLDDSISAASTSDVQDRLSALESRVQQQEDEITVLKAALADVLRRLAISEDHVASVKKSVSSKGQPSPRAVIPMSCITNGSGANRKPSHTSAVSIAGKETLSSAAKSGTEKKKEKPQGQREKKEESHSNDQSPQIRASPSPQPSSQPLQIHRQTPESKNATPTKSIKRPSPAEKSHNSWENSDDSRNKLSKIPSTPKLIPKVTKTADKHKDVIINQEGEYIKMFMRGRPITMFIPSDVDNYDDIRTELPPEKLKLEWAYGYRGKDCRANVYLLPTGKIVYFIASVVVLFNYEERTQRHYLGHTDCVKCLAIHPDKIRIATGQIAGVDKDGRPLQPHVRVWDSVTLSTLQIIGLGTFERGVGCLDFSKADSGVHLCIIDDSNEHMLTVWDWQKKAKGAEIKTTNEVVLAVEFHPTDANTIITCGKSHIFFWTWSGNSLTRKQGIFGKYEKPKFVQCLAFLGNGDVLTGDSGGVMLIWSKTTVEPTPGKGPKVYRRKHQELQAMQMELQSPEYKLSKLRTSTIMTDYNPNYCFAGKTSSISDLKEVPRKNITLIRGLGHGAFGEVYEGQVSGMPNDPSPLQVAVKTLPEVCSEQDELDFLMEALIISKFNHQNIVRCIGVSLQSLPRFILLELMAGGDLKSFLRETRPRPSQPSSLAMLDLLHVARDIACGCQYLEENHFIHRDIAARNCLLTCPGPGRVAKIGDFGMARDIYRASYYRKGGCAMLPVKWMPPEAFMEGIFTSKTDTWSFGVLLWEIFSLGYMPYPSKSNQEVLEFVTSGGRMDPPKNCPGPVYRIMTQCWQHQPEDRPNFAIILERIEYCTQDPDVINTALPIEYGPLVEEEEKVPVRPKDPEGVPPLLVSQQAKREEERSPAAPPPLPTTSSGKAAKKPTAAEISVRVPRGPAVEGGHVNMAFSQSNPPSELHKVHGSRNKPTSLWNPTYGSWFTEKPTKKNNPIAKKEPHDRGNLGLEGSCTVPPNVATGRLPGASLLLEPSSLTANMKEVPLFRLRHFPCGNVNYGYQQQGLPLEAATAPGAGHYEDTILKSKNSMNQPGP
Method notes: EML4-ALK HiBit degradation assay in CRISPR-tagged H3122 cells (Nano-Glo HiBit Lytic Detection)
Assay type: cell-based
Condition context: Table 1, second DC50 column; H3122 EML4-ALK-HiBit, 16 hours; read-out: Degradation DC50
Protocol: NSCLC cell line H3122 was subjected to CRISPR to express EML4-ALK with HiBit-tag on its c-terminal. Single-cell clone was selected and expanded for the following assays that monitor endogenous EML4-ALK level in high throughput manner. […] HiBit signal was assessed using Nano-Glo® HiBit Lytic Detection System (Promega™). […] NSCLC cell line H3122 was subjected to CRISPR to express EML4-ALK with HiBit-tag on its c-terminus. […] HiBit signal was assessed using Nano-Glo® HiBit Lytic Detection System (Promega™). […]
Readout: DC50 (nM)
Respond numerically; units are nM and should not be typed.

Compound: COc1cc(CCN(C)C(=O)CCCCCCC(=O)N[C@H](C(=O)N2C[C@H](O)C[C@H]2C(=O)N[C@@H](C)c2ccc(-c3scnc3C)cc2)C(C)(C)C)c(C)cc1Nc1ncc(Cl)c(Nc2ccccc2S(=O)(=O)C(C)C)n1 [compound 40]
DC50 [nM]: 145
//
Compound: COc1cc(CCN(C)C(=O)CCCCCCCCNc2cccc3c2C(=O)N(C2CCC(=O)NC2=O)C3=O)c(C)cc1Nc1ncc(Cl)c(Nc2ccccc2S(=O)(=O)C(C)C)n1 (stereo not drawn) [compound 3]
DC50 [nM]: 346

Turning now to a further compound:
Give the reported DC50 for this compound. COc1cc(CCN(C)C(=O)CCCCCNC(=O)COc2cccc3c2C(=O)N(C2CCC(=O)NC2=O)C3=O)c(C)cc1Nc1ncc(Cl)c(Nc2ccccc2S(=O)(=O)C(C)C)n1 (stereo not drawn) [compound 6] 266

----------
Target or system: EML4-ALK (Homo sapiens)
Construct: endogenous in cells; host or cells: H3122 (NSCLC), single-cell clone after CRISPR knock-in of HiBit; the other entry of the earlier key: EML4 (Q9HC35, Echinoderm microtubule-associated protein-like 4)
Method notes: EML4-ALK HiBit degradation assay in CRISPR-tagged H3122 cells (Nano-Glo HiBit Lytic Detection)
Type: cell-based
Condition context: Table 1, first DC50 column; H3122 EML4-ALK-HiBit, 16 hours; read-out: Degradation DC50
Description: NSCLC cell line H3122 was subjected to CRISPR to express EML4-ALK with HiBit-tag on its c-terminal. Single-cell clone was selected and expanded for the following assays that monitor endogenous EML4-ALK level in high throughput manner. […] HiBit signal was assessed using Nano-Glo® HiBit Lytic Detection System (Promega™). […] NSCLC cell line H3122 was subjected to CRISPR to express EML4-ALK with HiBit-tag on its c-terminus. […] HiBit signal was assessed using Nano-Glo® HiBit Lytic Detection System (Promega™). […]
Criterion: DC50 strictly less than 600 nM. Met: Met. Not met: Not met.

Compound: COc1cc(CCN(C)C(=O)CCCCCNC(=O)COc2cccc3c2C(=O)N(C2CCC(=O)NC2=O)C3=O)c(C)cc1Nc1ncc(Cl)c(Nc2ccccc2S(=O)(=O)C(C)C)n1 (stereo not shown)
Target or system: EML4-ALK (Homo sapiens)
Qualitative label: Met

Consider the additional compound presented here.
Please determine if "COc1cc(CCN(C)C(=O)CCCCCCCC(=O)N[C@H](C(=O)N2C[C@H](O)C[C@H]2C(=O)N[C@@H](C)c2ccc(-c3scnc3C)cc2)C(C)(C)C)c(C)cc1Nc1ncc(Cl)c(Nc2ccccc2S(=O)(=O)C(C)C)n1" is below 600 nM in terms of DC50. Not met

----------
Target or system: EML4-ALK (Homo sapiens)
Construct: endogenous in cells; host or cells: H3122 (NSCLC), single-cell clone after CRISPR knock-in of HiBit; the other entry of the earlier key: EML4 (Q9HC35, Echinoderm microtubule-associated protein-like 4)
Method notes: EML4-ALK HiBit degradation assay in CRISPR-tagged H3122 cells (Nano-Glo HiBit Lytic Detection)
Type: cell-based
Condition context: Table 1, first DC50 column; H3122 EML4-ALK-HiBit, 16 hours; read-out: Degradation DC50
DC50 by entry:
Answer shape: numeric part, then the unit.

Molecule: CC[C@@H](NC(=O)[C@@H]1C[C@H](NC(=O)CCCCCCCC(=O)N(C)CCc2cc(OC)c(Nc3ncc(Cl)c(Nc4ccccc4S(=O)(=O)C(C)C)n3)cc2C)CN1C(=O)[C@@H](NC(=O)[C@H](C)NC)C(C)(C)C)c1ccccc1
Target or system: EML4-ALK (Homo sapiens)
DC50: 163 nM

Molecule: COc1cc(CCN(C)C(=O)CCOCCOCCNC(=O)COc2cccc3c2C(=O)N(C2CCC(=O)NC2=O)C3=O)c(C)cc1Nc1ncc(Cl)c(Nc2ccccc2S(=O)(=O)C(C)C)n1 (centres unmarked)
Target or system: EML4-ALK (Homo sapiens)
DC50: 171 nM

Molecule: COc1cc(CCN(C)C(=O)CCCCCCCCC(=O)N[C@H](C(=O)N2C[C@H](O)C[C@H]2C(=O)N[C@@H](C)c2ccc(-c3scnc3C)cc2)C(C)(C)C)c(C)cc1Nc1ncc(Cl)c(Nc2ccccc2S(=O)(=O)C(C)C)n1
Target or system: EML4-ALK (Homo sapiens)
DC50: 777 nM

State the measured DC50 (EML4-ALK (Homo sapiens)) of "COc1cc(CCNCCOCCOCCOCCC(=O)N[C@H](C(=O)N2C[C@H](O)C[C@H]2C(=O)N[C@@H](C)c2ccc(-c3scnc3C)cc2)C(C)(C)C)c(C)cc1Nc1ncc(Cl)c(Nc2ccccc2S(=O)(=O)C(C)C)n1" 1100 nM

State the measured DC50 (EML4-ALK (Homo sapiens)) of COc1cc(CCNCCOCCOCCC(=O)N[C@H](C(=O)N2C[C@H](O)CC2C(=O)N[C@@H](C)c2ccc(-c3scnc3C)cc2)C(C)(C)C)c(C)cc1Nc1ncc(Cl)c(Nc2ccccc2S(=O)(=O)C(C)C)n1 (some centres unmarked) 1390 nM
